Each recorded value in this set is attributed to ChEMBL document CHEMBL5665443.

Entries and their inhibition
Molecular target: DNA-3-methyladenine glycosylase (Homo sapiens);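 further: enzyme assay where MPG cuts a quenched duplex DNA oligonucleotide probe, paired with APE1 for strand incision and turnover, read as fluorescence at 594 nm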
Conditions: Compound Concentration 10.0 uM, Hit No
Description: Inhibition of MPG by quantifying inhibition of MPG-mediated cleavage and dissociation of quenched duplex DNA oligonucleotides, measured as fluorescence at 594 nm. To generate a functional strand incision and increase turn-over this assay is coupled to APE1.
Please give a number only; it is taken to be in %.

Cc1cc(-c2ccc3c(c2)CC[C@H]3N2CC3(CCN(C(=O)Cc4cn5cc(C)sc5n4)CC3)C2)ncn1 :: -2.4

What measured inhibition goes with Oc1cc2c(cc1O)CN(C(=S)NCCc1ccc(Cl)cc1)CCC2 ?
26.6

Param item: CC(Cc1ccc(O)c(O)c1)C(C)Cc1ccc(O)c(O)c1 (stereo not drawn)
19.4

----------
Target: G/T mismatch-specific thymine DNA glycosylase (Homo sapiens) (UniProt Q13569);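 further: human TDG cleavage of quenched duplex DNA oligonucleotides coupled to APE1, strand release read as fluorescence at 594 nm, inhibition of TDG activity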
Sequence (Q13569 whole entry): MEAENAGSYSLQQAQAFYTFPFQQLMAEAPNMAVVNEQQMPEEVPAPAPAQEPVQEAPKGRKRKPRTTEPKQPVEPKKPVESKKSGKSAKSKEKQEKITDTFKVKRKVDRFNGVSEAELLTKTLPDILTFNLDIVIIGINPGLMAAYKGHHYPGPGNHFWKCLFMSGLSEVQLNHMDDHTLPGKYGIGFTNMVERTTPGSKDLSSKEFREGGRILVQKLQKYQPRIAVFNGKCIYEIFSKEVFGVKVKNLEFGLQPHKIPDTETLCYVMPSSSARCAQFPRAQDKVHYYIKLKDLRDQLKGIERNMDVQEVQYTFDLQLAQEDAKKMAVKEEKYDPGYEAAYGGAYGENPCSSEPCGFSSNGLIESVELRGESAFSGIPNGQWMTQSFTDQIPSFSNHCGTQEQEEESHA
Conditions: Compound Concentration 10.0 uM, Hit No
Description: Inhibition of TDG by quantifying inhibition of TDG-mediated cleavage and dissociation of quenched duplex DNA oligonucleotides, measured as fluorescence at 594 nm. To generate a functional strand incision and increase turn-over this assay is coupled to APE1.
measurementName: inhibition (%)
Please give a number only; it is taken to be in %.

Example entries begin here.
CN1CCN(c2cc(-c3ccccc3)nc(N)n2)CC1 :: 1.13
CCN(CC)CCCCC1CCN(CC(=O)N2c3ccccc3C(=O)Nc3cccnc32)CC1 :: 10.1
CCn1c(=O)c(C)cn(Cc2nnc(-c3ccc(F)c(OC)c3F)s2)c1=O :: 20.6
C[C@H]1CN(C[C@H](Cc2ccccc2)C(=O)NCC(=O)O)CC[C@@]1(C)c1cccc(O)c1 :: 37.5
N#Cc1c(N)nc(SCc2csc(-c3ccc(Cl)cc3)n2)c(C#N)c1-c1ccc(OCCO)cc1 :: 6.03
FC(F)(F)c1ccc2c(c1)nc(-c1cccnc1)n2C1CC1 :: 39.3
CC(C)(O)c1ccc2c(c1)ncn2-c1cccc(-c2ccccc2C#N)c1 :: -5.39
CN1CCc2cc(Cl)c(O)cc2[C@@H](c2ccccc2)C1 :: 3.73

Now, please, on to the next compound.
What measured inhibition goes with CCOC(=O)c1ncn2c1[C@@H]1CCCN1C(=O)c1cc(OC)ccc1-2 ?
-5.12
